Assayed target: aurora A kinase (AURKA) (Homo sapiens)
Construct: purchased BPS Bioscience (assay run externally by the vendor)
Procedure details: ADP-Glo kinase assay, Aurora A
Type: biochemical
Assay conditions: Log[nM] 2.0; Set1
Observation type: Aurora A % Activity Set1 (%)

{"columns": ["Chemical smiles", "Assayed target", "Observation type", "Reading"],
 "data": [
  ["FC(F)(F)c1cccc(Nc2ncnc3[nH]ccc23)c1", "aurora A kinase (AURKA) (Homo sapiens)", "Aurora A % Activity Set1", 110],
  ["Clc1ccccc1Nc1ncnc2[nH]ccc12", "aurora A kinase (AURKA) (Homo sapiens)", "Aurora A % Activity Set1", 103],
  ["COc1ccc(Nc2ncnc3[nH]ccc23)cc1", "aurora A kinase (AURKA) (Homo sapiens)", "Aurora A % Activity Set1", 100],
  ["Clc1ccc(Nc2ncnc3[nH]ccc23)cc1Cl", "aurora A kinase (AURKA) (Homo sapiens)", "Aurora A % Activity Set1", 104],
  ["Cc1ccccc1Nc1ncnc2[nH]ccc12", "aurora A kinase (AURKA) (Homo sapiens)", "Aurora A % Activity Set1", 98],
  ["Clc1cccc(Nc2ncnc3[nH]ccc23)c1", "aurora A kinase (AURKA) (Homo sapiens)", "Aurora A % Activity Set1", 94]
]}

* * *

Assayed target: aurora A kinase (AURKA) (Homo sapiens, UniProt O14965)
Construct: purchased BPS Bioscience (assay run externally by the vendor)
Sequence (O14965 1-403): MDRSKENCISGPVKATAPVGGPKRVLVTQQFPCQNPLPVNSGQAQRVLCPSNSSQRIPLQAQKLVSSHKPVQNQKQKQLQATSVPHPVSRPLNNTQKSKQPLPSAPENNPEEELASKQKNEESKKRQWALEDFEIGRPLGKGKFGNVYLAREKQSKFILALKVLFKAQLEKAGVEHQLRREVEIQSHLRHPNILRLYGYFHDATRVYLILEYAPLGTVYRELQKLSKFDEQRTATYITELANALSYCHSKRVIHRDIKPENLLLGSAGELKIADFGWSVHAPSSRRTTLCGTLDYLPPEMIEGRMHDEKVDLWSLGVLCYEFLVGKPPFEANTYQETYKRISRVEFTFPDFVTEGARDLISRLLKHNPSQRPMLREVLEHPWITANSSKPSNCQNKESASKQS
Procedure details: ADP-Glo kinase assay, Aurora A
Type: biochemical
Assay conditions: Log[nM] 1.5; Set1

{"columns": ["Compound", "Aurora A % Activity Set1"],
 "data": [
  ["c1ccc(Cc2ccc(Nc3ncnc4[nH]ccc34)cc2)cc1 [Compound 18]", "105%"],
  ["FC(F)(F)c1cccc(Nc2ncnc3[nH]ccc23)c1 [Compound 13]", "107%"],
  ["Fc1cc(Nc2ncnc3[nH]ccc23)ccc1Cl [Compound 3]", "99%"],
  ["Clc1ccc(Nc2ncnc3[nH]ccc23)cc1 [Compound 4]", "104%"],
  ["Clc1ccc(Nc2ncnc3[nH]ccc23)cc1Br [Compound 7]", "100%"],
  ["Cc1ccccc1Nc1ncnc2[nH]ccc12 [Compound 15]", "105%"],
  ["Brc1ccc(Nc2ncnc3[nH]ccc23)cc1 [Compound 10]", "100%"],
  ["Cc1ccc(Nc2ncnc3[nH]ccc23)cc1 [Compound 9]", "111%"],
  ["Brc1cccc(Nc2ncnc3[nH]ccc23)c1 [Compound 2]", "109%"]
]}

* * *

EGFR % Activity Set1 reference
Assayed target: EGFR (Homo sapiens)
Procedure details: ADP-Glo kinase assay, EGFR
Assay type: biochemical
Design: purchased BPS Bioscience (assay run externally by the vendor)
Assay conditions: Log[nM] 1.5; Set1
Observation type: EGFR % Activity Set1 (%)

{"columns": ["Chemical smiles", "Observation type", "Reading"],
 "data": [
  ["Clc1ccc(Nc2ncnc3[nH]ccc23)cc1", "EGFR % Activity Set1", 65],
  ["Clc1ccc(Nc2ncnc3[nH]ccc23)cc1Cl", "EGFR % Activity Set1", 14],
  ["Cc1ccccc1Nc1ncnc2[nH]ccc12", "EGFR % Activity Set1", 113],
  ["Fc1cc(Nc2ncnc3[nH]ccc23)ccc1Cl", "EGFR % Activity Set1", 13],
  ["Clc1ccccc1Nc1ncnc2[nH]ccc12", "EGFR % Activity Set1", 108],
  ["COc1ccc(Nc2ncnc3[nH]ccc23)cc1", "EGFR % Activity Set1", 105],
  ["Cc1ccc(Nc2ncnc3[nH]ccc23)cc1", "EGFR % Activity Set1", 113]
]}

* * *

Assayed target: EGFR (Homo sapiens, UniProt P00533)
Sequence (P00533 25-1210): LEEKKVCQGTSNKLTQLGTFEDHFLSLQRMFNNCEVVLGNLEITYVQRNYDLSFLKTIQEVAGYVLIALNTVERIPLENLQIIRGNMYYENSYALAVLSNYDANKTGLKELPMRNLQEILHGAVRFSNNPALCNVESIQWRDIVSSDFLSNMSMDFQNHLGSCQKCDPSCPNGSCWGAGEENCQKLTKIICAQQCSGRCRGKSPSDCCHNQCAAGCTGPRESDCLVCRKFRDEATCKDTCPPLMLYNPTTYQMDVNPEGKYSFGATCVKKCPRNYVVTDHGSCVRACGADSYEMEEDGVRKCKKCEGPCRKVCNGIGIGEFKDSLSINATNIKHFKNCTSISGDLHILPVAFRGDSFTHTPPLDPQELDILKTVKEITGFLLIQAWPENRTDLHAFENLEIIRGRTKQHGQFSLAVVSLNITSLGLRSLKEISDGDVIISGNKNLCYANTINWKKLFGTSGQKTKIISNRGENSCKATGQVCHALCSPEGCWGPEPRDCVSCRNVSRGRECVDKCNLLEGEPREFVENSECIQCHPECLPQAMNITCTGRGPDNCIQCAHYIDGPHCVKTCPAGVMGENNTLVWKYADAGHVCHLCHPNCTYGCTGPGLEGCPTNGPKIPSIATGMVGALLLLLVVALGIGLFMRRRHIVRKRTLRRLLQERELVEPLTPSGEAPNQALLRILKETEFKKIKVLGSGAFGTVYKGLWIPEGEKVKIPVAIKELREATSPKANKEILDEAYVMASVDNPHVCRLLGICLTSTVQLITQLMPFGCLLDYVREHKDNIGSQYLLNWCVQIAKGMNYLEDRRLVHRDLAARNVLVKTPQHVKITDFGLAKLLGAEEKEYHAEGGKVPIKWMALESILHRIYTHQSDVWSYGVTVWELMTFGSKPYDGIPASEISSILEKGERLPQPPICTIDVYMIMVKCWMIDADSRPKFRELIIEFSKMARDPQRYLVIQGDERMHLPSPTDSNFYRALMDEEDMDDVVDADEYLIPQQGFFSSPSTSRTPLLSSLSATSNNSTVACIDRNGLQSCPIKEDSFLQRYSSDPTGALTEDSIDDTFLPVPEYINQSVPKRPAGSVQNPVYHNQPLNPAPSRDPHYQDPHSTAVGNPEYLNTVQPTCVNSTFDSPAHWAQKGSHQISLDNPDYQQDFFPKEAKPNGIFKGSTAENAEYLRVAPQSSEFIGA
Procedure details: ADP-Glo kinase assay, EGFR
Type: biochemical
Set-up: purchased BPS Bioscience (assay run externally by the vendor)
Assay conditions: Log[nM] 3.5; Set1
// returns f unless EGFR % Activity Set1 is strictly below 2%, in which case t

{"columns": ["Chemical smiles", "Assayed target", "Assigned class"],
 "data": [
  ["COc1ccc(Nc2ncnc3[nH]ccc23)cc1", "EGFR (Homo sapiens, UniProt P00533)", "f"],
  ["FC(F)(F)c1cccc(Nc2ncnc3[nH]ccc23)c1", "EGFR (Homo sapiens, UniProt P00533)", "f"],
  ["Clc1ccc(Nc2ncnc3[nH]ccc23)cc1Br", "EGFR (Homo sapiens, UniProt P00533)", "t"],
  ["c1ccc(Cc2ccc(Nc3ncnc4[nH]ccc34)cc2)cc1", "EGFR (Homo sapiens, UniProt P00533)", "f"],
  ["Cc1ccc(Nc2ncnc3[nH]ccc23)cc1", "EGFR (Homo sapiens, UniProt P00533)", "f"],
  ["c1ccc(Nc2ncnc3[nH]ccc23)cc1", "EGFR (Homo sapiens, UniProt P00533)", "f"],
  ["Clc1ccc(Nc2ncnc3[nH]ccc23)cc1", "EGFR (Homo sapiens, UniProt P00533)", "f"],
  ["Clc1ccccc1Nc1ncnc2[nH]ccc12", "EGFR (Homo sapiens, UniProt P00533)", "f"],
  ["Fc1cc(Nc2ncnc3[nH]ccc23)ccc1Cl", "EGFR (Homo sapiens, UniProt P00533)", "t"],
  ["Clc1ccc(Nc2ncnc3[nH]ccc23)cc1Cl", "EGFR (Homo sapiens, UniProt P00533)", "t"]
]}

* * *

Assayed target: EGFR (Homo sapiens, UniProt P00533)
Procedure details: ADP-Glo kinase assay, EGFR
Assay type: biochemical
Set-up: purchased BPS Bioscience (assay run externally by the vendor)
Assay conditions: Log[nM] 3.5; Set2
EGFR % Activity Set2 reference
Observation type: EGFR % Activity Set2

{"columns": ["Compound", "Assayed target", "Reading"],
 "data": [
  ["FC(F)(F)c1cccc(Nc2ncnc3[nH]ccc23)c1 [Compound 13]", "EGFR (Homo sapiens, UniProt P00533)", "4%"],
  ["Clc1ccccc1Nc1ncnc2[nH]ccc12 [Compound 14]", "EGFR (Homo sapiens, UniProt P00533)", "14%"],
  ["Brc1cccc(Nc2ncnc3[nH]ccc23)c1 [Compound 2]", "EGFR (Homo sapiens, UniProt P00533)", "1%"],
  ["Clc1ccc(Nc2ncnc3[nH]ccc23)cc1 [Compound 4]", "EGFR (Homo sapiens, UniProt P00533)", "4%"],
  ["Clc1ccc(Nc2ncnc3[nH]ccc23)cc1Cl [Compound 5]", "EGFR (Homo sapiens, UniProt P00533)", "1%"],
  ["Cc1ccccc1Nc1ncnc2[nH]ccc12 [Compound 15]", "EGFR (Homo sapiens, UniProt P00533)", "24%"]
]}

* * *

Assayed target: aurora A kinase (AURKA) (Homo sapiens, UniProt O14965)
Construct: purchased BPS Bioscience (assay run externally by the vendor)
Procedure details: ADP-Glo kinase assay, Aurora A
Format: biochemical
Assay conditions: Log[nM] 3.0; Set2
Values of Aurora A % Activity Set2 greater than or equal to 80% map to T; values below map to F.

{"columns": ["Molecule", "Assigned class"],
 "data": [
  ["Cc1ccc(Nc2ncnc3[nH]ccc23)cc1 [Compound 9]", "T"],
  ["c1ccc(Cc2ccc(Nc3ncnc4[nH]ccc34)cc2)cc1 [Compound 18]", "F"],
  ["Fc1cc(Nc2ncnc3[nH]ccc23)ccc1Cl [Compound 3]", "F"],
  ["Clc1ccc(Nc2ncnc3[nH]ccc23)cc1Br [Compound 7]", "T"],
  ["Brc1ccc(Nc2ncnc3[nH]ccc23)cc1 [Compound 10]", "T"],
  ["Clc1cccc(Nc2ncnc3[nH]ccc23)c1 [Compound 11]", "T"]
]}

* * *

Assayed target: aurora A kinase (AURKA) (Homo sapiens, UniProt O14965)
Construct: purchased BPS Bioscience (assay run externally by the vendor)
Procedure details: ADP-Glo kinase assay, Aurora A
Assay type: biochemical
Assay conditions: Log[nM] 4.0; Set2
Observation type: Aurora A % Activity Set2 (%)

{"columns": ["Chemical smiles", "Assayed target", "Unit spec", "Reading"],
 "data": [
  ["Cc1ccc(Nc2ncnc3[nH]ccc23)cc1", "aurora A kinase (AURKA) (Homo sapiens, UniProt O14965)", "%", 29],
  ["Clc1ccc(Nc2ncnc3[nH]ccc23)cc1", "aurora A kinase (AURKA) (Homo sapiens, UniProt O14965)", "%", 28],
  ["c1ccc(Oc2ccc(Nc3ncnc4[nH]ccc34)cc2)cc1", "aurora A kinase (AURKA) (Homo sapiens, UniProt O14965)", "%", 42],
  ["Nc1nc(Nc2cccc(Br)c2)c2cc[nH]c2n1", "aurora A kinase (AURKA) (Homo sapiens, UniProt O14965)", "%", 28],
  ["FC(F)(F)c1cccc(Nc2ncnc3[nH]ccc23)c1", "aurora A kinase (AURKA) (Homo sapiens, UniProt O14965)", "%", 26]
]}
